Target: uPA (Homo sapiens, UniProt P00749)
Experiment: FRET peptide cleavage efficiency with uPA
Format: biochemical
Conditions: t = 120 min; 200 uM linker, 1 ug/ml protease, 37° C., buffer A pH 8.5
Square brackets hold non-standard residues; d marks the D form. Ends that are not written are not given here. Tyr(3-NO2) = N[C@@H](Cc1ccc(O)c([N+](=O)[O-])c1)C(=O)O; Nle = CCCC[C@H](N)C(=O)O; 2Abz = Nc1ccccc1C(=O)O
parameter: % cleavage uPA t = 120 min (%)
Express the result in % but write the number alone.

Input line: Which measured % cleavage uPA t = 120 min value corresponds to RYGKSAPLGLAG ([2Abz]RYGKSAPLGLAG[Tyr(3-NO2)]-NH2) [LNK027] ?
Output line: 17

Input line: Check SGRVLRKAGPAGLVG ([2Abz]SGRVLRKAGPAGLVG[Tyr(3-NO2)]-NH2) [LNK013] too.
Output line: 6

Input line: Check KWGKSAPLGLAG ([2Abz]KWGKSAPLGLAG[Tyr(3-NO2)]-NH2) [LNK026] too.
Output line: 3

Input line: Check RGRRAANLVRPLGYFGKL ([2Abz]RGRRAANLVRPLGYFGKL[Tyr(3-NO2)]-NH2) [LNK060] too.
Output line: 25

Input line: Check SGRVLPAGLVG ([2Abz]SGRVLPAGLVG[Tyr(3-NO2)]-NH2) [LNK007] too.
Output line: 1

Input line: Check SSRGPASNRRLPLGLAG ([2Abz]SSRGPASNRRLPLGLAG[Tyr(3-NO2)]-NH2) [LNK001] too.
Output line: 30

Input line: Check GSSVYSGR ([2Abz]GSSVYSGR[Tyr(3-NO2)]-NH2) [LNK080] too.
Output line: 28

Input line: Check SGRVANLVG (not fully specified (N-terminus, C-terminus)) [LNK017] too.
Output line: 12

Input line: Check GSSYYSGA ([2Abz]GSSYYSGA[Tyr(3-NO2)]-NH2) [LNK079] too.
Output line: 0

Input line: Check RGRRVANYFGKL ([2Abz]RGRRVANYFGKL[Tyr(3-NO2)]-NH2) [LNK055] too.
Output line: 8

Input line: Check RGRRHSSKLQPLGYFGKL ([2Abz]RGRRHSSKLQPLGYFGKL[Tyr(3-NO2)]-NH2) [LNK062] too.
Output line: 0

Input line: Check RSSYRSL ([2Abz]RSSYRSL[Tyr(3-NO2)]-NH2) [LNK075] too.
Output line: 19

Input line: Check RGRRHSSKLQ ([2Abz]RGRRHSSKLQ[Tyr(3-NO2)]-NH2) [LNK052] too.
Output line: 0

Input line: Check RRLHYSL ([2Abz]RRLHYSL[Tyr(3-NO2)]-NH2) [LNK073] too.
Output line: 0

Input line: Check RGRRPLGLAGGSG ([2Abz]RGRRPLGLAGGSG[Tyr(3-NO2)]-NH2) [LNK051] too.
Output line: 0

Input line: Check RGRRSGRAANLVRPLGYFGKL ([2Abz]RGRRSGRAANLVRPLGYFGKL[Tyr(3-NO2)]-NH2) [LNK059] too.
Output line: 100

Input line: Check SGRVAGLVG ([2Abz]SGRVAGLVG[Tyr(3-NO2)]-NH2) [LNK016] too.
Output line: 12

Input line: Check RQRRS-Nle-PLGLAG ([2Abz]RQRRS[Nle]PLGLAG[Tyr(3-NO2)]-NH2) [LNK025] too.
Output line: 2

Input line: Check SSRGRRGPYMLQG ([2Abz]SSRGRRGPYMLQG[Tyr(3-NO2)]-NH2) [LNK021] too.
Output line: 27

Input line: Check HSSKLQL ([2Abz]HSSKLQL[Tyr(3-NO2)]-NH2) [LNK078] too.
Output line: 0

Input line: Check RGRRPLGLAG ([2Abz]RGRRPLGLAG[Tyr(3-NO2)]-NH2) [LNK049] too.
Output line: 0

Input line: Check RQRRSAPLGLAG ([2Abz]RQRRSAPLGLAG[Tyr(3-NO2)]-NH2) [LNK009] too.
Output line: 3

Input line: Check RGRRPLGYFGKL ([2Abz]RGRRPLGYFGKL[Tyr(3-NO2)]-NH2) [LNK057] too.
Output line: 0

Input line: Check PASNRRLPLGLAG ([2Abz]PASNRRLPLGLAG[Tyr(3-NO2)]-NH2) [LNK018] too.
Output line: 0

Input line: Check GSGSGSGS ([2Abz]GSGSGSGS[Tyr(3-NO2)]-NH2) [LNK064] too.
Output line: 0

Input line: Check SGRHSSKLQPLGYFGKL ([2Abz]SGRHSSKLQPLGYFGKL[Tyr(3-NO2)]-NH2) [LNK063] too.
Output line: 0

Input line: Check SGRVLGPLNLSG ([2Abz]SGRVLGPLNLSG[Tyr(3-NO2)]-NH2) [LNK008] too.
Output line: 2

Input line: Check SGRVLRKAGPQPLVD ([2Abz]SGRVLRKAGPQPLVD[Tyr(3-NO2)]-NH2) [LNK003] too.
Output line: 20

Input line: Check SGRVLTLRKAGPANLVG ([2Abz]SGRVLTLRKAGPANLVG[Tyr(3-NO2)]-NH2) [LNK012] too.
Output line: 34

Input line: Check RQRRSVVGG ([2Abz]RQRRSVVGG[Tyr(3-NO2)]-NH2) [LNK029] too.
Output line: 1

Input line: Check HSSKLQYFGKL ([2Abz]HSSKLQYFGKL[Tyr(3-NO2)]-NH2) [LNK061] too.
Output line: 0

Input line: Check KLYSSKQ ([2Abz]KLYSSKQ[Tyr(3-NO2)]-NH2) [LNK071] too.
Output line: 0

Input line: Check SPLGLAGS ([2Abz]SPLGLAGS[Tyr(3-NO2)]-NH2) [LNK030] too.
Output line: 0

Input line: Check SGRVLTLRKAPWGLLE ([2Abz]SGRVLTLRKAPWGLLE[Tyr(3-NO2)]-NH2) [LNK004] too.
Output line: 27

Input line: Check SSQYSSPG ([2Abz]SSQYSSPG[Tyr(3-NO2)]-NH2) [LNK069] too.
Output line: 0

Input line: Check RQRRSPLGLAG ([2Abz]RQRRSPLGLAG[Tyr(3-NO2)]-NH2) [LNK010] too.
Output line: 2

Input line: Check SGRVANPLGGSG ([2Abz]SGRVANPLGGSG[Tyr(3-NO2)]-NH2) [LNK053] too.
Output line: 12

Measured values drawn from patent US20240400614A1 for this set.
